Tested on: CAL-51
Experimental protocol: normalised response (% of control), CellTiter-Glo; higher = more viable cells (100 = DMSO, 0 = benzethonium chloride kill control)
Experimental context: incubation time: 72 h
Readout label: normalised response (%)
// note: answer is a bare numeric in %

*Q* Which normalised response value is on record for CC(C)C(=O)Nc1ccc([N+](=O)[O-])c(C(F)(F)F)c1 [Flutamide] (10000 nM) ?
*A* 89.6

*Q* Which normalised response value is on record for CCCc1cc(C)[nH]c(=O)c1CNC(=O)c1cc(-c2ccnc(N3CCN(C)CC3)c2)cc2c1cnn2C(C)C [GSK343] (10000 nM) ?
*A* 120

*Q* Which normalised response value is on record for O=C(O)CC[C@H]1CC[C@@](c2cc(F)ccc2F)(S(=O)(=O)c2ccc(Cl)cc2)CC1 [MK-0752] (1000 nM) ?
*A* 126

*Q* Which normalised response value is on record for CC/C(=C(\c1ccccc1)c1ccc(OCCN(C)C)cc1)c1ccccc1 [Tamoxifen] (10000 nM) ?
*A* 71.7

---

Tested on: CAL-85-1
Experimental protocol: drug sensitivity score (DSS), CellTiter-Glo (DSS (AUC-based score)); higher = stronger drug effect (viability inhibition or cytotoxicity); extreme values may be limits of the assay
Experimental context: incubation time: 72 h
Answer each item with its documented drug sensitivity score.
// no unit, no text: just the number

*Q* Which drug sensitivity score value is on record for `COc1cc2c(N3CCN(C(=O)Nc4ccc(OC(C)C)cc4)CC3)ncnc2cc1OCCCN1CCCCC1` ?
*A* 0

*Q* Which drug sensitivity score value is on record for `N[C@@H](Cc1ccc(N(CCCl)CCCl)cc1)C(=O)O` ?
*A* 17.4

*Q* Which drug sensitivity score value is on record for `CC/C(=C(\c1ccccc1)c1ccc(OCCN(C)C)cc1)c1ccccc1` ?
*A* 0

*Q* Which drug sensitivity score value is on record for `C[C@]12C=CC(=O)C=C1CC[C@@H]1[C@@H]2C(=O)C[C@@]2(C)[C@H]1CC[C@]2(O)C(=O)CO` ?
*A* 0

*Q* Which drug sensitivity score value is on record for `C[C@@H]1C[C@H]2[C@@H]3CCC4=CC(=O)C=C[C@]4(C)[C@@]3(F)[C@@H](O)C[C@]2(C)[C@@]1(O)C(=O)CO` ?
*A* 0

*Q* Which drug sensitivity score value is on record for `CN1CCN(c2nc(C3=C(c4c[nH]c5ccccc45)C(=O)NC3=O)c3ccccc3n2)CC1` ?
*A* 0

*Q* Which drug sensitivity score value is on record for Cn1nnc2c(C(N)=O)ncn2c1=O [Temozolomide] ?
*A* 0

*Q* Which drug sensitivity score value is on record for `CC[C@@H]1C(=O)N(C)c2cnc(Nc3ccc(C(=O)N[C@H]4CC[C@H](N5CCN(CC6CC6)CC5)CC4)cc3OC)nc2N1C(C)C` ?
*A* 12.6

---

Tested on: BT-549
Experimental protocol: normalised response (% of control), CellTox Green; higher = less cell death (100 = DMSO, 0 = benzethonium chloride kill control)
Experimental context: incubation time: 72 h
Tag: rule met if measured normalised response is not below 90%, rule not met if it is.

*Q* Entry Cn1nnc2c(C(N)=O)ncn2c1=O [Temozolomide] (10000 nM) : is its normalised response no less than 90%?
*A* rule not met

*Q* Entry COc1cc(Nc2ncc(F)c(Nc3ccc4c(n3)N(COP(=O)(O)O)C(=O)C(C)(C)O4)n2)cc(OC)c1OC [Fostamatinib] (25 nM) : is its normalised response no less than 90%?
*A* rule not met

*Q* Entry CCN(CC)CCOc1ccc(C(=C(Cl)c2ccccc2)c2ccccc2)cc1 [Clomifene] (100 nM) : is its normalised response no less than 90%?
*A* rule met

*Q* Entry CC[C@@H]1C(=O)N(C)c2cnc(Nc3ccc(C(=O)N[C@H]4CC[C@H](N5CCN(CC6CC6)CC5)CC4)cc3OC)nc2N1C(C)C [Volasertib] (100 nM) : is its normalised response no less than 90%?
*A* rule not met

*Q* Entry CC(C)C[C@H](NC(=O)[C@H](CCc1ccccc1)NC(=O)CN1CCOCC1)C(=O)N[C@@H](Cc1ccccc1)C(=O)N[C@@H](CC(C)C)C(=O)[C@@]1(C)CO1 [Carfilzomib] (10 nM) : is its normalised response no less than 90%?
*A* rule not met

*Q* Entry O=C(O)CC[C@H]1CC[C@@](c2cc(F)ccc2F)(S(=O)(=O)c2ccc(Cl)cc2)CC1 [MK-0752] (100 nM) : is its normalised response no less than 90%?
*A* rule met

*Q* Entry NC(=O)NO [Hydroxyurea] (100000 nM) : is its normalised response no less than 90%?
*A* rule met

*Q* Entry CCc1c(C(=O)C(N)=O)c2c(OCC(=O)O)cccc2n1Cc1ccccc1 [Varespladib] (1000 nM) : is its normalised response no less than 90%?
*A* rule met

*Q* Entry CC/C(=C(\c1ccccc1)c1ccc(OCCN(C)C)cc1)c1ccccc1 [Tamoxifen] (10000 nM) : is its normalised response no less than 90%?
*A* rule not met

---

System: HDQ-P1
Experimental protocol: normalised response (% of control), CellTiter-Glo; higher = more viable cells (100 = DMSO, 0 = benzethonium chloride kill control)
Experimental context: incubation time: 72 h
Answer each item with its documented normalised response.
// note: answer is a bare numeric in %

*Q* Form entry - test system: HDQ-P1; read-out: normalised response; compound: CCc1cnn2c(NCc3ccc[n+]([O-])c3)cc(N3CCCC[C@H]3CCO)nc12 [Dinaciclib] (100 nM)
*A* 22.3

*Q* Form entry - test system: HDQ-P1; read-out: normalised response; compound: Cn1cc(C[C@@H](N)C(=O)O)c2ccccc21 [1-methyl-D-tryptophan] (0.5 nM)
*A* 105

*Q* Form entry - test system: HDQ-P1; read-out: normalised response; compound: CCCc1cc(C)[nH]c(=O)c1CNC(=O)c1cc(-c2ccnc(N3CCN(C)CC3)c2)cc2c1cnn2C(C)C [GSK343] (1000 nM)
*A* 103

*Q* Form entry - test system: HDQ-P1; read-out: normalised response; compound: Cn1cc(C[C@@H](N)C(=O)O)c2ccccc21 [1-methyl-D-tryptophan] (5 nM)
*A* 104

*Q* Form entry - test system: HDQ-P1; read-out: normalised response; compound: CC[C@H](CC#N)OC(=O)N[C@@H](C)c1cccc(NC(=O)Nc2ccc(-c3cnco3)c(OC)c2)c1 [AVN944] (1000 nM)
*A* 46.1

*Q* Form entry - test system: HDQ-P1; read-out: normalised response; compound: C[C@@H]1C[C@H]2[C@@H]3CCC4=CC(=O)C=C[C@]4(C)[C@@]3(F)[C@@H](O)C[C@]2(C)[C@@]1(O)C(=O)CO [Dexamethasone] (1000 nM)
*A* 83.6

*Q* Form entry - test system: HDQ-P1; read-out: normalised response; compound: CC/C(=C(\c1ccccc1)c1ccc(OCCN(C)C)cc1)c1ccccc1 [Tamoxifen] (10 nM)
*A* 104

---

Answer each item with its documented drug sensitivity score.
Test system: CAL-120
Experimental protocol: drug sensitivity score (DSS), CellTiter-Blue viability (DSS (AUC-based score)); higher = stronger viability inhibition; extreme values may be limits of the assay
Experimental context: incubation time: 72 h
// no unit, no text: just the number

*Q* Which drug sensitivity score value is on record for O=C(O)CC[C@H]1CC[C@@](c2cc(F)ccc2F)(S(=O)(=O)c2ccc(Cl)cc2)CC1 [MK-0752] ?
*A* 0

*Q* Which drug sensitivity score value is on record for Cc1cc2c(F)c(Oc3ncnn4cc(OC[C@@H](C)O)c(C)c34)ccc2[nH]1 [Brivanib] ?
*A* 0

*Q* Which drug sensitivity score value is on record for CN1CCN(c2nc(C3=C(c4c[nH]c5ccccc45)C(=O)NC3=O)c3ccccc3n2)CC1 [Sotrastaurin] ?
*A* 0

*Q* Which drug sensitivity score value is on record for C[C@@H]1C[C@H]2[C@@H]3CCC4=CC(=O)C=C[C@]4(C)[C@@]3(F)[C@@H](O)C[C@]2(C)[C@@]1(O)C(=O)CO [Dexamethasone] ?
*A* 0

*Q* Which drug sensitivity score value is on record for NC1(c2ccc(-c3nc4ccn5c(=O)[nH]nc5c4cc3-c3ccccc3)cc2)CCC1 [MK-2206] ?
*A* 0

*Q* Which drug sensitivity score value is on record for CC(C)C[C@H](NC(=O)[C@H](CCc1ccccc1)NC(=O)CN1CCOCC1)C(=O)N[C@@H](Cc1ccccc1)C(=O)N[C@@H](CC(C)C)C(=O)[C@@]1(C)CO1 [Carfilzomib] ?
*A* 23.9

*Q* Which drug sensitivity score value is on record for CCN(CC)CCOc1ccc(C(=C(Cl)c2ccccc2)c2ccccc2)cc1 [Clomifene] ?
*A* 3.83

*Q* Which drug sensitivity score value is on record for Cc1c(N)nc([C@H](CC(N)=O)NC[C@H](N)C(N)=O)nc1C(=O)N[C@H](C(=O)N[C@H](C)[C@@H](O)[C@H](C)C(=O)N[C@H](C(=O)NCCc1nc(-c2nc(C(=O)NCCC[S+](C)C)cs2)cs1)[C@@H](C)O)[C@@H](OC1OC(CO)C(O)C(O)C1OC1OC(CO)C(O)C(OC(N)=O)C1O)c1cnc[nH]1 (some centres undefined) [Bleomycin] ?
*A* 3.15

*Q* Which drug sensitivity score value is on record for CCCCCOC(=O)Nc1nc(=O)n([C@@H]2O[C@H](C)[C@@H](O)[C@H]2O)cc1F [Capecitabine] ?
*A* 0
